test system: phosphodiesterase from B16 melanoma tissue (B16 tumour cells); test: PDE inhibition (PDE assay), phosphodiesterase from B16 melanoma tissue, 3H-cAMP substrate; format: biochemical, mice; details: concentration which inhibited PDE activity by 50%, 1 μmol/l 3H-cAMP as substrate, read-out: PDE inhibition ED50, B16 tumour cells
pIC50: −log10 of the molar value.
MEASUREMENT_KIND: pIC50

INSERT INTO assay_data (compound_structure, measurement_kind, observed) VALUES
  ('CCN(CC)c1nc(N2CCNCC2)nc2c(SC)ncnc12', 'pIC50', 7.43);

(a) CSc1ncnc2c(N3CCCCCC3)nc(N3CCNCC3)nc12
(b) CCCCCCNc1nc(N2CCNCC2)nc2c(SC)ncnc12
When a and b are compared, which has the higher number for pIC50? In your reply, give the label of the chosen option. a

====

biological target: phosphodiesterase from human thrombocytes; test: PDE inhibition (PDE assay), phosphodiesterase from human thrombocytes, 3H-cAMP substrate; format: biochemical; settings: concentration which inhibited PDE activity by 50%, 1 μmol/l 3H-cAMP as substrate, read-out: PDE inhibition ED50, Human thrombocytes
pIC50: −log10 of the molar value.
MEASUREMENT_KIND: pIC50

INSERT INTO results (compound_structure, measurement_kind, observed) VALUES
  ('CSc1ncnc2c(N3CCCCCC3)nc(N3CCNCC3)nc12', 'pIC50', 5.77),
  ('CCCCCCNc1nc(N2CCNCC2)nc2c(SC)ncnc12', 'pIC50', 5.92),
  ('CCN(CC)c1nc(N2CCNCC2)nc2c(SC)ncnc12', 'pIC50', 5.89),
  ('CSc1ncnc2c(N3CCCC3)nc(N3CCNCC3)nc12', 'pIC50', 5.80);

All values here come from patent US4714698A.
